target: Human Cav 2.2 channels (Homo sapiens); assay: Fluorescent assay for CaV2.2 channels using potassium depolarization (VIPR/FLIPR); type: cell-based; conditions: FLIPR data; inactivated state; read-out: CAv2.2 IC50 Inact.
Sequence (Q00975 whole entry): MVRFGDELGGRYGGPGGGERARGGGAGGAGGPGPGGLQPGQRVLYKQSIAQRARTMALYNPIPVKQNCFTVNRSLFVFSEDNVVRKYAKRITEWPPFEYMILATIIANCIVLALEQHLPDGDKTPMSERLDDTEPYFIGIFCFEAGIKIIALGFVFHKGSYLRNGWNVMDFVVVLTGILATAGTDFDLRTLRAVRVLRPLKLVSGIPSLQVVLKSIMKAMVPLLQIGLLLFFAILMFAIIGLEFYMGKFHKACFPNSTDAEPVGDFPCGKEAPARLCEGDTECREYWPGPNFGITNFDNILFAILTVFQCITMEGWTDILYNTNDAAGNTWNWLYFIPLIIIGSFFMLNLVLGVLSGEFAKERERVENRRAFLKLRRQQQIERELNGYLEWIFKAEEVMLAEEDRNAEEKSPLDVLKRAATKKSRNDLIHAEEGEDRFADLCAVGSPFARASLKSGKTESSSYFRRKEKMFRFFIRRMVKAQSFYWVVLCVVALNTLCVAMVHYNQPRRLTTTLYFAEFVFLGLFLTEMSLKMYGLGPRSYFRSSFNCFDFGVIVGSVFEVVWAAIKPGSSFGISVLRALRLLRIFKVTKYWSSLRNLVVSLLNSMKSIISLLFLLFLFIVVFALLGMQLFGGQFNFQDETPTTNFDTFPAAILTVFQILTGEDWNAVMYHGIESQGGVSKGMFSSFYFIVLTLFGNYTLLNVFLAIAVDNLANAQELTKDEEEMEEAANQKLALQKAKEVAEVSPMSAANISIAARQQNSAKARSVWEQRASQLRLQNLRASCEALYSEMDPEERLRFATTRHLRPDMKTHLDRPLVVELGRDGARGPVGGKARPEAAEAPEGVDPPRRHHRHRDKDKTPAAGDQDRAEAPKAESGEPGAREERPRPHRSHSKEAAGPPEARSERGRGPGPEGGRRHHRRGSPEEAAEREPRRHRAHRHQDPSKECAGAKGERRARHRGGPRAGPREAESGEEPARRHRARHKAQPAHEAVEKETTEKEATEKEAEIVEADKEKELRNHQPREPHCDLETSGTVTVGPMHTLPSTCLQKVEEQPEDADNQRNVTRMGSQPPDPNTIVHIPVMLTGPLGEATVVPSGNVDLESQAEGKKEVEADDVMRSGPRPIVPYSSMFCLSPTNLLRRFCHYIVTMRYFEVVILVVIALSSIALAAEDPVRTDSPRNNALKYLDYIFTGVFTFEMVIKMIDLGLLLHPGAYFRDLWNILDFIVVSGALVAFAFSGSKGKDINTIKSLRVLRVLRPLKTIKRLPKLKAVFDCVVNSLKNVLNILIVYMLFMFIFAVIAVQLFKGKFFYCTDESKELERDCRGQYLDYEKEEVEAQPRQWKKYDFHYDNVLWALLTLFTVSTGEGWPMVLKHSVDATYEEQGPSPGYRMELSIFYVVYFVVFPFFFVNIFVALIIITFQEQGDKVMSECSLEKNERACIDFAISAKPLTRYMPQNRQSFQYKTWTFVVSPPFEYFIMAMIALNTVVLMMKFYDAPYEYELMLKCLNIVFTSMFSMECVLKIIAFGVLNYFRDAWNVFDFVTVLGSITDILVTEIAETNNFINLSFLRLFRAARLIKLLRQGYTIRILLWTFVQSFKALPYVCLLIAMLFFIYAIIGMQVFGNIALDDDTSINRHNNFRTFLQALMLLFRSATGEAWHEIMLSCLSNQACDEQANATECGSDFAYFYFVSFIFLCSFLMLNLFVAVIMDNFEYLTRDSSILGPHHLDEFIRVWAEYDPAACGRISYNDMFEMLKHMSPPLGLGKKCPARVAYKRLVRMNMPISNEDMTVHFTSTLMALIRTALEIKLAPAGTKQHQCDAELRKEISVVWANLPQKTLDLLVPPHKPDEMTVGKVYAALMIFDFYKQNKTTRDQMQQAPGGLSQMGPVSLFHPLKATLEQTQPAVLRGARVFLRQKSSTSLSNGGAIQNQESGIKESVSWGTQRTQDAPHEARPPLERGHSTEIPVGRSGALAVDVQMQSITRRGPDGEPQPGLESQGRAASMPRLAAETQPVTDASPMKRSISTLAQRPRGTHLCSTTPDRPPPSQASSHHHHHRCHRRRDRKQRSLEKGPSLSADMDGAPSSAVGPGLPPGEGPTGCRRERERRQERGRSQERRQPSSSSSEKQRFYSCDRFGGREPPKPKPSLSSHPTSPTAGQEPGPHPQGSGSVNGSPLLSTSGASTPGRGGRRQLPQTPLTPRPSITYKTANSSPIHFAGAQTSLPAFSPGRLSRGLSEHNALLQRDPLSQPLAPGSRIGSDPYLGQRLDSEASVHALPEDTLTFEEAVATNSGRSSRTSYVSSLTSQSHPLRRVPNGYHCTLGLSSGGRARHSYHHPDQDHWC
Sequence (P54289 25-1103 partner): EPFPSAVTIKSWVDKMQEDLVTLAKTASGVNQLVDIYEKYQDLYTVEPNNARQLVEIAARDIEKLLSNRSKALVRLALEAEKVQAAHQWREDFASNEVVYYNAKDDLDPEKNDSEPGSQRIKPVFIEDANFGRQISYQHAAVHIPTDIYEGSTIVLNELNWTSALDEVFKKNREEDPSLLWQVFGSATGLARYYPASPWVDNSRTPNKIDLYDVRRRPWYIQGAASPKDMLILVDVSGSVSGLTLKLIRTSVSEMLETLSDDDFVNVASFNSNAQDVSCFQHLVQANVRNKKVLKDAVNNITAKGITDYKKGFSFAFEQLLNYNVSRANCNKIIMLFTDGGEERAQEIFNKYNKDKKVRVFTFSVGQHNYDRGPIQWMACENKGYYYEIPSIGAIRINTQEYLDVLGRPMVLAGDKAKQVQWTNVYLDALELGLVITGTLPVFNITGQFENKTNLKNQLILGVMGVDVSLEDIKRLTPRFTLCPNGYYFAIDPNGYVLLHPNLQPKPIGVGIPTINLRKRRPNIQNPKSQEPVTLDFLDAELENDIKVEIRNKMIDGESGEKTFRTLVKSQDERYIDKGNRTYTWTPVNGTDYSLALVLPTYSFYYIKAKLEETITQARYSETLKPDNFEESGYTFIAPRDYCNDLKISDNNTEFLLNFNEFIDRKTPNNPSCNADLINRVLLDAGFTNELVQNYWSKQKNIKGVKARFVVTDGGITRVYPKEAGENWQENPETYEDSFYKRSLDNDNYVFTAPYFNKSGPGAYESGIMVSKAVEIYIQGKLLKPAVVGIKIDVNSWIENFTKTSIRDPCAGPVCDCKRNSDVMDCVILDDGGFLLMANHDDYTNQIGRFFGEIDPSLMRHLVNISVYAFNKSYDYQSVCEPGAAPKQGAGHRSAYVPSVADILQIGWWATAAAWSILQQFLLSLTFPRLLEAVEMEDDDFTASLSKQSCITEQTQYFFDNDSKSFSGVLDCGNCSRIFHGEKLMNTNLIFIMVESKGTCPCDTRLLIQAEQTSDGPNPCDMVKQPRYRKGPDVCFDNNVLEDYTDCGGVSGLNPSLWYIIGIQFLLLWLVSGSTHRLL
Sequence (P54284 whole entry partner): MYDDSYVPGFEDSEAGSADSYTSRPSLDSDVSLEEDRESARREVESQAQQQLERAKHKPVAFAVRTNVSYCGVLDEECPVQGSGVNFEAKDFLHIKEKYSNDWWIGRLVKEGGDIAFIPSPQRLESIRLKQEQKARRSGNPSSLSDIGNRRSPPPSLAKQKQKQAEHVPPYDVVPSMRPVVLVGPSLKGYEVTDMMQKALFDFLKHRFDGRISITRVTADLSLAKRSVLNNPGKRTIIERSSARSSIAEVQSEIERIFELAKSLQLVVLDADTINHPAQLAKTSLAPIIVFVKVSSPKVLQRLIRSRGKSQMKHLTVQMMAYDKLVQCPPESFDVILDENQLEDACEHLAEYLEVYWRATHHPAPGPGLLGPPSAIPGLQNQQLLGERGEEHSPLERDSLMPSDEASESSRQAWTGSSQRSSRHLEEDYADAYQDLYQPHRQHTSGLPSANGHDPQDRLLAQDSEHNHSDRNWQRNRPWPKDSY
Listed here are compounds together with their documented IC50.
recorded_endpoint: IC50 (µM)

smiles_entry: CC(C)([C@H]1C[C@H](NS(=O)(=O)c2ccc(C(F)(F)F)cc2Cl)C1)S(=O)(=O)c1cc(F)cc(C(F)(F)F)c1
experimental_target: Human Cav 2.2 channels (Homo sapiens)
test_result: 0.74
--
smiles_entry: CC(C)([C@H]1C[C@H](NC(=O)c2ccnc(C(F)(F)F)n2)C1)S(=O)(=O)c1cccc(OC(F)(F)F)c1
experimental_target: Human Cav 2.2 channels (Homo sapiens)
test_result: 0.27
--
smiles_entry: CC(C)(C[C@H]1C[C@@H](NC(=O)c2cnc(C(F)(F)F)nc2)C1)S(=O)(=O)c1cccc(C(F)(F)F)c1
experimental_target: Human Cav 2.2 channels (Homo sapiens)
test_result: 0.13
--
smiles_entry: CC(C)([C@H]1C[C@H](NC(=O)c2ccc(C(F)(F)F)cc2S(C)(=O)=O)C1)S(=O)(=O)c1cccc(OC(F)(F)F)c1
experimental_target: Human Cav 2.2 channels (Homo sapiens)
test_result: 0.38
--
smiles_entry: CC(C)([C@H]1C[C@@H](NS(=O)(=O)c2ccc(C(F)(F)F)nc2)C1)S(=O)(=O)c1cccc(C(F)(F)F)c1
experimental_target: Human Cav 2.2 channels (Homo sapiens)
test_result: 0.43
--
smiles_entry: CC(C)(C[C@H]1C[C@@H](NC(=O)c2ccc(OCC(F)(F)F)nc2)C1)S(=O)(=O)c1cccc(C(F)(F)F)c1
experimental_target: Human Cav 2.2 channels (Homo sapiens)
test_result: 0.04

---

target: human α1G T-type channels (Homo sapiens); experiment: T-type calcium channel block, whole cell patch clamp, α1G; conditions: HEK cells stably expressing human α1G; mainly non-inactivated protocol; values above 10,000 nM represented as 10000
Strictly below 600 nM in IC50: True. Otherwise: False.

molecule: CC(C)(C)NC(=O)CN[C@H]1CC[C@@](F)(S(=O)(=O)c2cccc(C(F)(F)F)c2)CC1
experimental_target: human α1G T-type channels (Homo sapiens)
cat: False
--
molecule: O=C(N[C@H]1CC[C@H](S(=O)(=O)c2cccc(C(F)(F)F)c2)CC1)c1cc(F)cc(Cl)c1
experimental_target: human α1G T-type channels (Homo sapiens)
cat: False
--
molecule: CC(C)(CCNC(=O)c1ncc(C(F)(F)F)cc1S(C)(=O)=O)S(=O)(=O)c1cccc(C(F)(F)F)c1
experimental_target: human α1G T-type channels (Homo sapiens)
cat: True
--
molecule: Cn1nc(C(F)(F)F)cc1C(=O)NC1CCC(S(=O)(=O)c2cccc(C(F)(F)F)c2)CC1 (stereo not drawn)
experimental_target: human α1G T-type channels (Homo sapiens)
cat: False
--
molecule: COc1cc(C(=O)N(C)CCC(C)(C)S(=O)(=O)c2cccc(C(F)(F)F)c2)cc(Cl)n1
experimental_target: human α1G T-type channels (Homo sapiens)
cat: True
--
molecule: CC(C)(CNC(=O)c1cc(C(F)(F)F)ccn1)S(=O)(=O)c1cccc(C(F)(F)F)c1
experimental_target: human α1G T-type channels (Homo sapiens)
cat: True
--
molecule: CC1(S(=O)(=O)c2cccc(C(F)(F)F)c2)CCC(NC(=O)c2ccn(CC(F)(F)F)n2)CC1 (stereo not drawn)
experimental_target: human α1G T-type channels (Homo sapiens)
cat: False
--
molecule: Cn1nc(C(F)(F)F)cc1C(=O)NC1(C)CCC(S(=O)(=O)c2cccc(C(F)(F)F)c2)CC1 (stereo not drawn)
experimental_target: human α1G T-type channels (Homo sapiens)
cat: False
--
molecule: CC1(CNC(=O)c2ccc(C(F)(F)F)cn2)CCC(F)(S(=O)(=O)c2cccc(C(F)(F)F)c2)CC1 (stereo not drawn)
experimental_target: human α1G T-type channels (Homo sapiens)
cat: False
--
molecule: CN(C(=O)c1ccc(F)c(Cl)c1)[C@H]1CC[C@@](F)(S(=O)(=O)c2cc(F)cc(C(F)(F)F)c2)CC1
experimental_target: human α1G T-type channels (Homo sapiens)
cat: False
--
molecule: Cc1cc(NC(=O)CN[C@H]2CC[C@H](S(=O)(=O)c3cccc(C(F)(F)F)c3)CC2)on1
experimental_target: human α1G T-type channels (Homo sapiens)
cat: False
--
molecule: CC(C)(CN[C@H]1CC[C@H](C(F)(F)F)CC1)S(=O)(=O)c1cccc(C(F)(F)F)c1
experimental_target: human α1G T-type channels (Homo sapiens)
cat: True
--
molecule: O=C(Nc1cncc(Cl)c1)[C@H]1C[C@@H](S(=O)(=O)c2cccc(C(F)(F)F)c2)C1
experimental_target: human α1G T-type channels (Homo sapiens)
cat: False

# credit: patent US20120245137A1
